- Test system: primary human hepatic stellate cells (donor 1)
- testDetails: scaled lipid accumulation score (0 = DMSO-like, 1 = nortriptyline-like); higher = stronger HSC inactivation (lipid re-accumulation), active = hit call of the paper
- measurementContext: library stock concentration: 3.33 mM; 48 h
Structures can show the parent of a compound that is named as a salt. Hit rate of the full screen: of about 5,800 compounds, about 620 (11%) showed activity. Shown is part of a subset that was picked to be rich in actives.
scaled lipid accumulation score listing for selected molecules.

Exercise: Which scaled lipid accumulation score value is on record for CN(C[C@@H]1COCCO1)S(=O)(=O)Nc1ccc2ccc3ncc(-c4cnn(C)c4)cc3c(=O)c2c1 ?
Key: ≤ 0 (inactive)

Exercise: Which scaled lipid accumulation score value is on record for CN1CCN(c2ccc(OC(F)(F)F)c(Nc3ncc4c(n3)-c3c(c(C(N)=O)nn3CCO)CC4)c2)CC1 ?
Key: ≤ -0.009 (inactive)

Exercise: Which scaled lipid accumulation score value is on record for COc1cc2ncnc(Nc3cccc(O)c3)c2cc1OC [WHI-P180, Hydrochloride] ?
Key: ≤ 0 (inactive)

Exercise: Which scaled lipid accumulation score value is on record for CC(C)N(CCCNC(=O)Nc1ccc(C(C)(C)C)cc1)C[C@H]1O[C@@H](n2cc(Br)c3c(N)ncnc32)[C@H](O)[C@@H]1O ?
Key: 0.805 (inactive)

Exercise: Which scaled lipid accumulation score value is on record for COc1cc2ncnc(Nc3ccc(Oc4ccccc4)cc3)c2cc1OC [Src Kinase Inhibitor I] ?
Key: ≤ 0 (inactive)

Exercise: Which scaled lipid accumulation score value is on record for CNC(=O)c1nn(C)c2c1C(C)(C)Cc1cnc(Nc3ccc(N4CCN(C)CC4)cc3)nc1-2 ?
Key: 0.148 (inactive)

Exercise: Which scaled lipid accumulation score value is on record for CC(C)N(CCCNC(=O)Nc1ccc(C(C)(C)C)cc1)C[C@H]1O[C@@H](n2ccc3c(N)ncnc32)[C@H](O)[C@@H]1O ?
Key: 0.204 (inactive)

Exercise: Which scaled lipid accumulation score value is on record for COc1cc2ncnc(Nc3cccc(Cl)c3)c2cc1OC [AG-1478 (Tyrphostin AG-1478)] ?
Key: ≤ 0 (inactive)

----------
- Tested on: primary human hepatic stellate cells (donor 1)
- testDetails: scaled lipid accumulation score (0 = DMSO-like, 1 = nortriptyline-like); higher = stronger HSC inactivation (lipid re-accumulation), active = hit call of the paper
- measurementContext: library stock concentration: 10 mM; 48 h
Structures can show the parent of a compound that is named as a salt. In all, about 5,800 compounds went through this assay and about 620 (11%) showed activity.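 The calls were made as follows: active = score above a cut-off or among the top three wells of a plate; in these data no inactive exceeds 0.85.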 This is one part of a sample in which actives are shown more often than they occur.
Can you answer with just one of these options? 1 for active, 0 for inactive

Worked set:
• Cn1cc(-c2cnn3c(N)c(Br)c([C@@H]4CCCNC4)nc23)cn1 = 0
• O=C(O)c1c(Sc2ccccc2)c2cc(Cl)ccc2n1Cc1ccc(Cl)cc1 = 0
• CNC(=O)[C@H]1O[C@@H](n2cnc3c(NCc4cccc(I)c4)nc(Cl)nc32)[C@H](O)[C@@H]1O [Chloro-IB-MECA] = 0
• O=C(Cc1ccccc1)NO [Phenylacetohydroxamic acid] = 0

Exercise: I would be grateful if you could indicate the recorded call for CC(C)NCC(O)COc1cccc2ccccc12.Cl (configuration not stated) .
Key: 1

Exercise: I would be grateful if you could indicate the recorded call for Nc1nc2c(ncn2[C@@H]2O[C@H](CO)[C@@H](O)[C@@H]2O)c(=O)[nH]1 [Ara-G hydrate] .
Key: 0

Exercise: I would be grateful if you could indicate the recorded call for CNCC(O)c1ccc(O)c(O)c1 (racemic) [(+/-)-Epinephrine hydrochloride] .
Key: 0

Exercise: I would be grateful if you could indicate the recorded call for Cl.Clc1ccc(Cn2c(CN3CCCC3)nc3ccccc32)cc1 [Clemizole hydrochloride] .
Key: 1

Exercise: I would be grateful if you could indicate the recorded call for Nc1ncnc2c1ncn2[C@@H]1O[C@@H]2COP(=O)(O)O[C@H]2[C@H]1O [Adenosine 3',5'-cyclic monophosphate] .
Key: 0

Exercise: I would be grateful if you could indicate the recorded call for CNC(=O)[C@H]1O[C@@H](n2cnc3c(NCc4cccc(I)c4)nc(Cl)nc32)[C@H](O)[C@@H]1O .
Key: 0

Exercise: I would be grateful if you could indicate the recorded call for C=CC(=O)Nc1cccc(Nc2nc(NC3CCC(N(C)C)CC3)nc3c2ncn3C(C)C)c1 (configuration not stated) .
Key: 0

Exercise: I would be grateful if you could indicate the recorded call for NC(N)=N[C@@H](CCC(=O)O)C(=O)O .
Key: 0

Exercise: I would be grateful if you could indicate the recorded call for CC1(C(=O)O)NCCc2cc(O)c(O)cc21 (configuration not stated) .
Key: 0

Exercise: I would be grateful if you could indicate the recorded call for Clc1ccc(C2(c3ccc(-c4cn[nH]c4)cc3)CCNCC2)cc1 .
Key: 0

Exercise: I would be grateful if you could indicate the recorded call for O=C(O)Cc1c2ccccc2n2c1[nH]c(=O)c1ccccc12 .
Key: 0

Exercise: I would be grateful if you could indicate the recorded call for CO[C@H]1C[C@H](O[C@H]2[C@H](C)[C@@H](O[C@@H]3O[C@H](C)C[C@H](N(C)C)[C@H]3O)[C@@H](C)C[C@@]3(CO3)C(=O)[C@H](C)[C@@H](O)[C@@H](C)[C@@H](C)OC(=O)[C@@H]2C)O[C@@H](C)[C@@H]1O [Oleandomycin phosphate] .
Key: 0

Exercise: I would be grateful if you could indicate the recorded call for CC(C)NCC(O)COc1cccc2ccccc12 (configuration not stated) [Propranolol HCl] .
Key: 0
